meta.source: ChEMBL document CHEMBL2046422

// values below are reported inhibition
# Target entity: Prostaglandin E synthase (Homo sapiens)
# Protocol notes: Inhibition of mPGES-1 derived from IL1beta and TNFalpha stimulated human HeLa cells microsomal fraction using PGH2 as substrate at 1 uM preincubated for 30 mins prior to substrate addition measured after 1 min by LC-MS/MS analysis relative to control

Answered cases to consult:
[[record]]
compound = "O=C1NC(c2ccccc2Cl)Oc2ccccc21 (stereo not drawn)"
endpoint_name = "inhibition"
observed_value = "< 0%"

[[record]]
compound = "O=C(Nc1ccc2nc(C3CC3)n(Cc3ccccc3)c(=O)c2c1)c1cccnc1"
endpoint_name = "inhibition"
observed_value = "< 0%"


Let us move to another entry and its inhibition.
# return recorded inhibition for input `O=C(Cn1cnc2ccccc2c1=O)Nc1ccccc1Cl`
< 0%

###

# Target entity: 5-lipoxygenase/FLAP (Homo sapiens) (UniProt P09917+P20292)
# Protocol notes: Inhibition of 5-lipoxygenase/FLAP in calcium ionophore-stimulated human whole blood assessed as 5(s)HETE level at 10 uM preincubated for 15 mins prior to calcium ionophore-stimulation measured after 15 mins by LC-MS/MS analysis
# Assay type: protein-complex assay
# Parameters: scale not given: the % may be the effect or the level left
Endpoint name: Activity

Below are worked cases with known answers.
[[record]]
test_smiles = "CCCc1nc2ccc(NC(=O)c3c(F)cccc3Cl)cc2c(=O)n1Cc1cccc(Cl)c1"
observed_value = "92.1%"

[[record]]
test_smiles = "CCCc1nc2ccc(NC(=O)c3ccccc3Cl)cc2c(=O)n1Cc1ccc(-c2ccc(Cl)cc2)cc1"
observed_value = "157%"

[[record]]
test_smiles = "CCCc1nc2ccc(NC(=O)c3ccccc3Cl)cc2c(=O)n1Cc1ccc(-c2ccccc2)cc1"
observed_value = "74.8%"

[[record]]
test_smiles = "CCCc1nc2ccc(NC(=O)c3ccccc3Cl)cc2c(=O)n1Cc1ccccc1Cl"
observed_value = "88.1%"

[[record]]
test_smiles = "CCCc1nc2ccc(NC(=O)c3ccccc3Cl)cc2c(=O)n1Cc1ccc(-c2cccc(Cl)c2)cc1"
observed_value = "79%"


Find the measured Activity of `CCCc1nc2ccc(NC(=O)c3ccccc3Cl)cc2c(=O)n1Cc1cccc(Cl)c1` and report it.
92%

Fill in Activity for record `CCCc1nc2ccc(NC(=O)c3ccccc3C)cc2c(=O)n1Cc1cccc(Cl)c1`
74.4%

###

# Target entity: Prostaglandin G/H synthase 1 (Homo sapiens) (UniProt P23219)
# Sequence (P23219 whole entry): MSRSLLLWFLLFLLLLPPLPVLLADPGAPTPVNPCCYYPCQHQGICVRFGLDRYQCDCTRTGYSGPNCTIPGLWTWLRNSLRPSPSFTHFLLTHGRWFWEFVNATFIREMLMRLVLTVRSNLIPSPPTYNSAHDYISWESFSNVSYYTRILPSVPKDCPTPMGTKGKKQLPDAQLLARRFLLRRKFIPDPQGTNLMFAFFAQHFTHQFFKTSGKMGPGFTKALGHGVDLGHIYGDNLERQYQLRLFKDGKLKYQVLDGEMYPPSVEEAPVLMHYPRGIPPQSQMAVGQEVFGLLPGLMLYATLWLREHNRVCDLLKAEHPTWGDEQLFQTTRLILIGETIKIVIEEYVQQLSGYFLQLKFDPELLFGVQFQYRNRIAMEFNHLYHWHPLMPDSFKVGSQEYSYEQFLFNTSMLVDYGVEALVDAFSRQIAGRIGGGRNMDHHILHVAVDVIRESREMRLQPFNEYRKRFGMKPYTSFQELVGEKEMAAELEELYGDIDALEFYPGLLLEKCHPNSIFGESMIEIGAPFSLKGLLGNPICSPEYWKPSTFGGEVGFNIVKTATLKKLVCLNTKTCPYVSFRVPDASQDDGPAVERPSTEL
# Protocol notes: Inhibition of COX1 in human whole blood assessed as residual PGD2 level at 10 uM after 1 hr by LC-MS/MS analysis relative to control
Endpoint name: Activity (%)
Your answer is read as %, so omit the unit and give the number.

Check out these entries, answers already filled in.
[[record]]
test_smiles = "CCCc1nc2ccc(NC(=O)c3c(F)cccc3Cl)cc2c(=O)n1Cc1cccc(Cl)c1"
observed_value = 89.4

[[record]]
test_smiles = "CCCc1nc2ccc(NC(=O)c3ccccc3Cl)cc2c(=O)n1Cc1ccccc1Cl"
observed_value = 89


Lab note: next compound to report on.
Identify measured Activity associated with `CCCc1nc2ccc(NC(=O)c3ccccc3Cl)cc2c(=O)n1Cc1ccc(-c2cccc(OC)c2)cc1`
91.7
